# system: T1, HLA-A*24:02 (human)
# T1 construct: Peptide-receptive MHC class I monomer after UV cleavage of a UV-sensitive ligand
# assay text: UV-ligand exchange, anti-b2m ELISA; peptide exchange yield grade
# Text: Candidate peptides for T cell based therapies according to the present invention were further tested for their MHC binding capacity (affinity). The individual peptide-MHC complexes were produced by UV-ligand exchange, where a UV-sensitive peptide is cleaved upon UV-irradiation and exchanged with the peptide of interest as analyzed. Only peptide candidates that can effectively bind and stabilize the peptide-receptive MHC molecules prevent dissociation of the MHC complexes. […]
measured attribute: peptide exchange yield

Please give the measured peptide exchange yield for this binder: "AFDKTIVKL"
20 to 50%

Please give the measured peptide exchange yield for this binder: "VYVDTTELAL"
≥ 75%

Please give the measured peptide exchange yield for this binder: "IYNFRLWDF"
≥ 75%

Please give the measured peptide exchange yield for this binder: "IFVPTDRSL"
20 to 50%

Please give the measured peptide exchange yield for this binder: "EYQDFSTLF"
≥ 75%

Please give the measured peptide exchange yield for this binder: "FHYDDTAGYF"
10 to 20%

Please give the measured peptide exchange yield for this binder: "FFQDSTFSF"
≥ 75%

Please give the measured peptide exchange yield for this binder: "YHDQTISF"
10 to 20%

Please give the measured peptide exchange yield for this binder: "GYIDDVTLI"
50 to 75%

Please give the measured peptide exchange yield for this binder: "HLFYDVTVF"
20 to 50%

Please give the measured peptide exchange yield for this binder: "VYLDASKVPGF"
≥ 75%

Please give the measured peptide exchange yield for this binder: "YWDETLKEF"
50 to 75%

Please give the measured peptide exchange yield for this binder: "IYPDASLLIQNI"
≥ 75%

Please give the measured peptide exchange yield for this binder: "IFDETGRF"
20 to 50%

Please give the measured peptide exchange yield for this binder: "IYPDGTLLI"
≥ 75%

Please give the measured peptide exchange yield for this binder: "QYQDTTVSF"
50 to 75%
